Listed below: IC50 values for each entry.
- subject_of_test: human Kv1.3 (Homo sapiens)
- experiment_description: IonWorks automated patch clamp assay of inhibitory activity against Kv1.3
- Format: cell-based
- assay_setup: automated patch clamp method; CHO-K1 cells stably expressing human Kv1.3
outcome_measure: IC50 (nM)

CN(C)S(=O)(=O)N1CCN(c2ccc(N(Cc3ccnn3C)S(=O)(=O)c3ccc(F)cc3)cc2C#N)CC1 : 356
CCCCS(=O)(=O)N(Cc1ccc(F)cc1)c1ccc(N2CCN(C(=O)N(C)C)CC2)c(C#N)c1 : 101
CCS(=O)(=O)N(Cc1ccc(F)cc1)c1ccc(N2CCN(S(=O)(=O)N(C)C)CC2)c(C#N)c1 : 124
CN(C)CCOC1CCN(c2ccc(N(Cc3ccccc3)S(=O)(=O)c3ccccc3)cc2C#N)CC1 : 101

----------
Listed below: pIC50 values for each entry.
- subject_of_test: human Kv1.5 (Homo sapiens, UniProt P22460)
- Sequence (P22460 whole entry): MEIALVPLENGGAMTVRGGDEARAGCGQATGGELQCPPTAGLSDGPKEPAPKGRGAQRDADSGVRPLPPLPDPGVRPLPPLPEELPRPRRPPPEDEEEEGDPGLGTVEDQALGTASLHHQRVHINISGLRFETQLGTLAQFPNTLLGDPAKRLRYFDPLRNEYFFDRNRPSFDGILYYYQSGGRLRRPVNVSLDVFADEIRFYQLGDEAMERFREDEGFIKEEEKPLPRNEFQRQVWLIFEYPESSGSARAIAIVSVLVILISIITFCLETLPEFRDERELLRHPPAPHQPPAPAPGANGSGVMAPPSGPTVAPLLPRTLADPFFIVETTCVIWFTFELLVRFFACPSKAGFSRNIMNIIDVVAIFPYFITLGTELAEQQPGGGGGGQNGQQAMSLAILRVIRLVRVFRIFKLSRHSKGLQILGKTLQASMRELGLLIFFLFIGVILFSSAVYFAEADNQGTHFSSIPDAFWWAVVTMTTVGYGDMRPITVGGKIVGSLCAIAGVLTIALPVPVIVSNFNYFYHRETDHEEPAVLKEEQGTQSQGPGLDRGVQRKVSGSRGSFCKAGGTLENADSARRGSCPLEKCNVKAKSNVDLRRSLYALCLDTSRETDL
- experiment_description: Conventional patch clamp assay of inhibitory activity against Kv1.5
- assay_setup: conventional patch-clamp method; CHO-K1 cells stably expressing human Kv1.5
pIC50: −log10 of the molar value.
outcome_measure: pIC50

CCCS(=O)(=O)N(Cc1ccccc1)c1ccc(N2CCN(C(=O)OCC)CC2=O)c(C#N)c1 : 5.68
CCCS(=O)(=O)N(Cc1ccc(Cl)cc1)c1ccc(N2CCN(S(=O)(=O)N(C)C)CC2)c(C#N)c1 : 5.10
CC(C)CS(=O)(=O)N(Cc1ccc(F)cc1)c1ccc(N2CCN(C(=O)N(C)C)CC2)c(C#N)c1 : 5.44
CCCS(=O)(=O)N(Cc1ccc(F)cc1)c1ccc(N2CCN(C(=O)N(C)C)CC2)c(C#N)c1 : 5.55

----------
- subject_of_test: human Kv1.3 (Homo sapiens, UniProt P22001)
- Sequence (P22001 whole entry): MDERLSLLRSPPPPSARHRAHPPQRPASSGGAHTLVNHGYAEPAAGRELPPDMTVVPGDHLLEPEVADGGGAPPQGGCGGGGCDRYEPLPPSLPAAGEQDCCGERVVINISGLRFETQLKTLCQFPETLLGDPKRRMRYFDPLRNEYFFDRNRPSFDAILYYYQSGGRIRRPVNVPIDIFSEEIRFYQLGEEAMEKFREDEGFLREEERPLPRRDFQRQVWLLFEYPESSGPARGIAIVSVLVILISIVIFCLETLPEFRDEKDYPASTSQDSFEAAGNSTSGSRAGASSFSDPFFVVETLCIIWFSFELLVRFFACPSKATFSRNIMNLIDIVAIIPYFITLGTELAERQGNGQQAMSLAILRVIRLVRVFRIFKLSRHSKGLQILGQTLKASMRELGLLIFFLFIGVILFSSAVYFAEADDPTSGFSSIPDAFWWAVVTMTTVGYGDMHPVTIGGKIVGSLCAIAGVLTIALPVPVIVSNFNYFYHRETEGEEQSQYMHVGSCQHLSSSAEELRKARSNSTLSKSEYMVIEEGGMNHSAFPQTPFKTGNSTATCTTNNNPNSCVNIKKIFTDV
- experiment_description: Conventional patch clamp assay of inhibitory activity against Kv1.3
- Type: cell-based
- assay_setup: conventional patch-clamp method; CHO-K1 cells stably expressing human Kv1.3
- Description: II. Conventional Patch Clamp Assay of Inhibitory Activity Against Kv1.3 […] Inhibitory activity of the compounds against Kv1.3 was assessed using a CHO-K1 recombinant cell line stably expressing human Kv1.3 (Charles River, California). […] Each of the compounds was perfused by a gravity-driven perfusion system. […] After the current was stable, the blocking effect of the compounds was calculated by comparing the change in the current before and after administration of the compounds. […]
pIC50: −log10 of the molar value.
outcome_measure: pIC50

CCCS(=O)(=O)N(Cc1ccc(Cl)cc1)c1ccc(N2CCN(S(=O)(=O)N(C)C)CC2)c(C#N)c1 : 6.95
CCCS(=O)(=O)N(Cc1ccccc1)c1ccc(N2CCN(C(=O)OCC)CC2=O)c(C#N)c1 : 6.89
CC(C)CS(=O)(=O)N(Cc1ccc(F)cc1)c1ccc(N2CCN(C(=O)N(C)C)CC2)c(C#N)c1 : 6.97
CCCS(=O)(=O)N(Cc1ccc(F)cc1)c1ccc(N2CCN(C(=O)N(C)C)CC2)c(C#N)c1 : 6.85

----------
- subject_of_test: human Kv1.3 (Homo sapiens, UniProt P22001)
- experiment_description: IonWorks automated patch clamp assay of inhibitory activity against Kv1.3
- Type: cell-based
- assay_setup: automated patch clamp method; CHO-K1 cells stably expressing human Kv1.3
Listed below: IC50 values for each entry.
outcome_measure: IC50 (nM)

CCOC(=O)N1CCN(c2ccc(N(Cc3ccc(F)cc3)S(=O)(=O)c3ccc(F)cc3)cc2C#N)CC1 : 131
CCCS(=O)(=O)N(Cc1cccc(OC)c1)c1ccc(N2CCN(C(=O)OCC)CC2)c(C#N)c1 : 420
CCOC(=O)N1CCN(c2ccc(N(CC(C)C)S(=O)(=O)c3ccccc3)cc2C#N)CC1 : 6400
CN(C)S(=O)(=O)N1CCN(c2ccc(N(Cc3ccc(F)cc3)S(=O)(=O)c3cccnc3)cc2C#N)CC1 : 145
CCCS(=O)(=O)N(Cc1ccco1)c1ccc(N2CCN(C(=O)OCC)CC2)c(C#N)c1 : 839
CCCS(=O)(=O)N(Cc1ccncn1)c1ccc(N2CCN(C(=O)N(C)C)CC2)c(C#N)c1 : 167
CN(C)S(=O)(=O)C1CCN(c2ccc(N(Cc3ccccc3)S(=O)(=O)c3ccccc3)cc2C#N)CC1 : 234
CCCS(=O)(=O)N(Cc1ccc(F)cc1)c1ccc(SC2CCN(C(C)=O)CC2)c(C#N)c1 : 389

----------
- subject_of_test: human Kv1.3 (Homo sapiens, UniProt P22001)
- experiment_description: IonWorks automated patch clamp assay of inhibitory activity against Kv1.3
- Type: cell-based
- assay_setup: automated patch clamp method; CHO-K1 cells stably expressing human Kv1.3
pIC50: −log10 of the molar value.
outcome_measure: pIC50

N#Cc1cc(N(Cc2ccccc2)S(=O)(=O)c2ccccc2)ccc1N1CCC(=O)CC1 : 6.73
CCCS(=O)(=O)N(Cc1ccc(F)cc1)c1ccc(NC2CCN(C=O)CC2)c(C#N)c1 : 6.55
CCCS(=O)(=O)N(Cc1ccc(F)cc1)c1ccc(NC2CCNCC2)c(C#N)c1 : 6.86
CCCS(=O)(=O)N(Cc1ccc(F)cc1)c1ccc(OC2CCNCC2)c(C#N)c1 : 6.43
CN1CCCN(c2ccc(N(Cc3ccccc3)S(=O)(=O)c3ccccc3)cc2C#N)C1=O : 6.72
CCCS(=O)(=O)N(Cc1ccc(F)cc1)c1ccc(N2CCN(C(=O)N(C)C)CC2)c(C#N)c1 : 7.01
CCCS(=O)(=O)N(Cc1ccc(F)cc1)c1ccc(N2CCN(C(=O)OCC)CC2)c(C(F)(F)F)c1 : 6.80
N#Cc1cc(N(Cc2ccc(F)cc2)S(=O)(=O)c2ccccc2)ccc1N1CCOCC1 : 7.01
CC(=O)OC1CCN(c2ccc(N(Cc3ccccc3)S(=O)(=O)c3ccccc3)cc2C#N)CC1 : 6.51
N#Cc1cc(N(Cc2ccc(F)cc2)S(=O)(=O)c2ccccc2)ccc1N1CCC(O)CC1 : 7.05
CC(C)CS(=O)(=O)N(Cc1ccc(F)cc1)c1ccc(N2CCN(C(=O)N(C)C)CC2)c(C#N)c1 : 7.04
CCCS(=O)(=O)N(Cc1ccc(F)cc1)c1ccc(OC2CCN(C=O)CC2)c(C#N)c1 : 6.60
CCCS(=O)(=O)N(Cc1ccc(OC)cc1)c1ccc(N2CCN(C(=O)OCC)CC2)c(C#N)c1 : 6.62
CCCS(=O)(=O)N(Cc1ccc(F)cc1)c1ccc(N2CCN(C(=O)OCC)CC2)c(C#N)c1 : 6.87
CCCN(c1ccc(N2CCN(C(=O)OCC)CC2)c(C#N)c1)S(=O)(=O)c1ccc(F)cc1 : 5.03
CCCS(=O)(=O)N(Cc1ccccn1)c1ccc(N2CCN(C(=O)OCC)CC2)c(C#N)c1 : 6.78

----------
Listed below: pIC50 values for each entry.
- subject_of_test: human Kv1.3 (Homo sapiens)
- experiment_description: IonWorks automated patch clamp assay of inhibitory activity against Kv1.3
- Type: cell-based
- assay_setup: automated patch clamp method; CHO-K1 cells stably expressing human Kv1.3
- Experimental: I. IonWorks Automated Patch Clamp Assay of Inhibitory Activity Against Kv1.3 The principle and method for Kv1.3 IonWorks assay can be found in Schroeder et al. [Schroeder et al. J Biomol Screen 2003, 8(1):50-64] Inhibitory activity of the compounds against Kv1.3 was assessed using a CHO-K1 recombinant cell line stably expressing human Kv1.3 (Charles River, Calif.). […]
pIC50: −log10 of the molar value.
outcome_measure: pIC50

CCCS(=O)(=O)N(Cc1cncn1C)c1ccc(N2CCN(C(=O)OCC)CC2)c(C#N)c1 : 6.70
CCCS(=O)(=O)N(Cc1ccnn1C)c1ccc(N2CCN(C(=O)OCC)CC2)c(C#N)c1 : 6.89
CC(=O)N1CCC(Oc2ccc(N(Cc3ccccc3)S(=O)(=O)c3ccccc3)cc2C#N)CC1 : 6.36
CCCS(=O)(=O)N(Cc1ccncn1)c1ccc(N2CCN(C(=O)OCC)CC2)c(C#N)c1 : 6.39
CN(C)C(=O)N1CCN(c2ccc(N(Cc3ccc(F)cc3)S(=O)(=O)CC(C)(C)C)cc2C#N)CC1 : 6.69
CCCS(=O)(=O)N(Cc1ccc(F)cc1)c1ccc(NC2CCN(C(C)=O)CC2)c(C#N)c1 : 6.80
CCCS(=O)(=O)N(Cc1cccc(F)c1)c1ccc(N2CCN(C(=O)OCC)CC2)c(C#N)c1 : 6.75
N#Cc1cc(N(Cc2ccccc2)S(=O)(=O)c2ccccc2)ccc1N1CCC(O)CC1 : 6.71
CCOC(=O)N1CCN(c2ccc(N(C(=O)c3ccccc3)S(=O)(=O)c3ccccc3)cc2C#N)CC1 : 4.89
CN(C)C(=O)N1CCN(c2ccc(N(Cc3ccccc3)S(=O)(=O)c3ccccc3)cc2C#N)CC1 : 6.71
CCCS(=O)(=O)N(Cc1ccc(F)cc1)c1ccc(SC2CCNCC2)c(C#N)c1 : 6.39
N#Cc1cc(N(Cc2ccccc2)S(=O)(=O)c2ccccc2)ccc1N1C(=O)CCCC1=O : 5.90
CCCS(=O)(=O)N(Cc1ccc(OC)cc1F)c1ccc(N2CCN(C(=O)OCC)CC2)c(C#N)c1 : 6.36
